Enzyme Activity Endpoint Assay: Fab′2 reference
Molecular target: pooled human IgG (human IgG1, 2, 3 and 4) (human); note: test concentration or dose not given here
Experiment: cell-based or functional assay
readout_label: Enzyme Activity Endpoint Assay: Fab′2 (ng/µL)

# binder, display_unit, measurement
data = [
    ("PRT-378 (enzyme) MVTSVWTKGVTPPTNFTYGEDVLHAPYVANQGWYDITKTFNGKDDLLCGAATAGNMLHWWFDQNKEQIENYLKKHPEKQKINFNGEQMFDVKEAIDTKDSQLDSKLFEYFKEKAFPSLSTKHLGVFPDHVIDMFINGYRLSLTNHGPTPVKRGSKDPRGGIFDAVFTRGDQSKLLTNRHDFKEKTLKEISDLIKQELTEGKALGISHTYANVRINHVINLWGADFDAEGNLEAIYVTDSDSNASIGMKKYFVGVNSNGKVAISAKEIEEDNIGAQVLGLFTLSTGQDIWNQTN", "ng/µL", 477),
    ("PRT-444 (enzyme) MSQTEDSESLQRLRDIEDFQAEKKKQNVVYTKWLDGVDVKDHDFRKIVDGNIAYYATPLLNGRGFYDINKDFNRDSDKCAAAVAANMFHYWLDRNRDNVDRFLRQNPEKHGIIELPDGQLKLSDFLNTYESDDGYRDKSKLFDFISNNFNKPVWTDKLLDNYINGYAYNYKYGRTIEDPTKNTSKINFFKEVFNEKILTNNHSIRNQNEFSVLLSEALYTGKAIGLSYGPAGLRHSLGHIISVWGADLDADGNVVAIYVTDSDDKKLTIGDERVGLKRYKISTDDEGRLRLTAYEETHNTGGQIRGLWTLDTGKQAWADYFDKTEQTGTDQAEQ", "ng/µL", 494),
]
